target: Rho-associated protein kinase 2 (Rattus norvegicus); test: Inhibition of ROCK2-mediated myosin light chain bis-phosphorylation in rat A7r5 cells after 1 hr by TO-PRO-3 iodide staining-based assay
Sequence (Q62868 whole entry): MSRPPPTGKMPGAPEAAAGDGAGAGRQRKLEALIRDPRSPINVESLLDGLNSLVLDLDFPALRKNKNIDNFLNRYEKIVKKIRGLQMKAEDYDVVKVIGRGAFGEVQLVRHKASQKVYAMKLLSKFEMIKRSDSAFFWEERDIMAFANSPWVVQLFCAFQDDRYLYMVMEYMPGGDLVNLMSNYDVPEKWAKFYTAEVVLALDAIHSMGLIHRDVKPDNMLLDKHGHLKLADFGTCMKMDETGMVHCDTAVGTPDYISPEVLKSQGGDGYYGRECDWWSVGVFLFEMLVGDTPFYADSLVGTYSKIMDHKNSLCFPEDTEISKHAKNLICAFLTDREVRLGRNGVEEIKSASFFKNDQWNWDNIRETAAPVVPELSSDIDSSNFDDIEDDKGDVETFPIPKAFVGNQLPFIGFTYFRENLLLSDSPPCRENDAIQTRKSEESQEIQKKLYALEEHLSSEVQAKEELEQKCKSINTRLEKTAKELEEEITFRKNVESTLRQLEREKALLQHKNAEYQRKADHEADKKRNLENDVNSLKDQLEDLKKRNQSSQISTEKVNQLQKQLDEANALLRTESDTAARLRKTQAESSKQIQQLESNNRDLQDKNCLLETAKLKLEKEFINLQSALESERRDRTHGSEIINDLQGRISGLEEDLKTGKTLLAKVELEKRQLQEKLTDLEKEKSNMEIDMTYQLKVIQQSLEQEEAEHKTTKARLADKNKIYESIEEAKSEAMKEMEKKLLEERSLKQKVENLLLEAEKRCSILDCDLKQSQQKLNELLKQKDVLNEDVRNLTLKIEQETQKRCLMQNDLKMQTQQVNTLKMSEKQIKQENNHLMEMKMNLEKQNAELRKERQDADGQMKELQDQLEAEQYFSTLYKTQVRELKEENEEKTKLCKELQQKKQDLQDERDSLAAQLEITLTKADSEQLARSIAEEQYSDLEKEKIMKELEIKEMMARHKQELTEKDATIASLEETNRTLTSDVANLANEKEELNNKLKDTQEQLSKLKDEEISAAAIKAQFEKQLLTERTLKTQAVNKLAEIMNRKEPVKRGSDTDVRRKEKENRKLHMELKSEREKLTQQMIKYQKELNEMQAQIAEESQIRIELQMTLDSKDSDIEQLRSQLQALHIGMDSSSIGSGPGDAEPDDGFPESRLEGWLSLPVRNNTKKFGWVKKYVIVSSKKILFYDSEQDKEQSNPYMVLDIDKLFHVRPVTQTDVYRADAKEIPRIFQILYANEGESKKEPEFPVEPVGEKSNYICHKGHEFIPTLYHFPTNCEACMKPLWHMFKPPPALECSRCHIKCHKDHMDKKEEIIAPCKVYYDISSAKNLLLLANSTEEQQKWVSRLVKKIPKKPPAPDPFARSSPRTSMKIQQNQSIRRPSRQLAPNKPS
pIC50: −log10 of the molar value.
Listing of entries alongside the reported pIC50.
MEASURED_ENDPOINT: pIC50

[[record]]
sample_smiles = "COc1ccc2c(c1)C[C@@H](C(=O)Nc1ccc(-c3cn[nH]c3)cc1OCCN(C)C)CO2"
target = "Rho-associated protein kinase 2 (Rattus norvegicus)"
relation_operator = "="
readout_value = 7.37

[[record]]
sample_smiles = "COc1ccc2c(c1)C[C@H](C(=O)Nc1ccc(-c3cn[nH]c3)cc1O[C@@H]1CCN(C)C1)CO2"
target = "Rho-associated protein kinase 2 (Rattus norvegicus)"
relation_operator = ">"
readout_value = 8.40

[[record]]
sample_smiles = "COc1ccc2c(c1)C[C@H](C(=O)Nc1ccc(-c3cn[nH]c3)cc1OCCCO)CO2"
target = "Rho-associated protein kinase 2 (Rattus norvegicus)"
relation_operator = ">"
readout_value = 8.40

[[record]]
sample_smiles = "COc1ccc2c(c1)C[C@@H](C(=O)Nc1ccc(-c3cn[nH]c3)cc1OCCCO)CO2"
target = "Rho-associated protein kinase 2 (Rattus norvegicus)"
relation_operator = "="
readout_value = 6.28

[[record]]
sample_smiles = "COc1ccc2c(c1)C[C@@H](C(=O)Nc1ccc(-c3cn[nH]c3)cc1O[C@H]1CCN(C)C1)CO2"
target = "Rho-associated protein kinase 2 (Rattus norvegicus)"
relation_operator = "="
readout_value = 6.05

[[record]]
sample_smiles = "COc1ccc2c(c1)C[C@H](C(=O)Nc1ccc(-c3cn[nH]c3)cc1O[C@H]1CCN(C)C1)CO2"
target = "Rho-associated protein kinase 2 (Rattus norvegicus)"
relation_operator = ">"
readout_value = 8.40

[[record]]
sample_smiles = "COc1ccc2c(c1)C[C@H](C(=O)Nc1ccc(-c3cn[nH]c3)cc1OCCN(C)C)CO2"
target = "Rho-associated protein kinase 2 (Rattus norvegicus)"
relation_operator = ">"
readout_value = 8.40

[[record]]
sample_smiles = "COc1ccc2c(c1)C[C@@H](C(=O)Nc1ccc(-c3cn[nH]c3)cc1O[C@@H]1CCN(C)C1)CO2"
target = "Rho-associated protein kinase 2 (Rattus norvegicus)"
relation_operator = "="
readout_value = 7.49

[[record]]
sample_smiles = "COc1ccc2c(c1)C[C@H](C(=O)Nc1ccc(-c3cn[nH]c3)cc1OCCN1CCCC1)CO2"
target = "Rho-associated protein kinase 2 (Rattus norvegicus)"
relation_operator = ">"
readout_value = 8.40

[[record]]
sample_smiles = "COc1ccc2c(c1)C[C@@H](C(=O)Nc1ccc(-c3cn[nH]c3)cc1OCCN1CCCC1)CO2"
target = "Rho-associated protein kinase 2 (Rattus norvegicus)"
relation_operator = "="
readout_value = 6.39

